# targetEntity: T1, endothelial protein C receptor (EPCR), extracellular domain, biotinylated on the N-terminal BAP tag (human, UniProt Q9UNN8 18-210, biotin attached to the N-terminal BAP tag (BirA))
# T1 construct: also called biotinylated recombinant EPCR; ECPR
# T1 sequence: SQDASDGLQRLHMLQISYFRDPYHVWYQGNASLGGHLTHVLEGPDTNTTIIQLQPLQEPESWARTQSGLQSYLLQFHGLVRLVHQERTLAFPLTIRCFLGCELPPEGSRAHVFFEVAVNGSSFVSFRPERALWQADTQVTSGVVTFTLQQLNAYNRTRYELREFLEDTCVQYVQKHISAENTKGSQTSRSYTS
# assay: SPR
# assaySetup: both partners purified
readout: kon (M⁻¹ s⁻¹)
Kindly answer with a numeric value in M⁻¹ s⁻¹, unit omitted.

Per the record, CIDRα1.5a domain GA013_ERS010323 (domain or fragment, also called CIDRa1.5a GA013_ERS010323; GA013 (1.5a)) PYCGVDCSNGTCKENGNDDNCGEQQNYNIPKGVDPTNINVLYSVDGHGDIAKRLSTFCNDKNNKNAKNNEIWQCYYIGHKNNQCKIEKSVSQKKHQTKIAPFDYFFDLWVTNLLRDNIDWKNELKNCINNKNTEKCNKECNDNCKCFQSWLNKKEDEWNKITGLLKNKNGILQNYYNKLKSHFDYYFFQVINNINKGEEKWKKLKEDLKKEIDFSKLKTNTGDSQDSIKLLLDHENKNAGTCLKNNPIDSCPKAEPQKSDEKVQPQDTPPNSC has kon of 14700

Per the record, CIDRα1.5b domain 1983-13 (patient isolate 1983) (domain or fragment) PDCGVECNGKTCTKKEETDENCGKPPNYTIPTDVTPTDINVLYSGDEQGYITKRLSEFCGPTKNYIGKKNELWKCYYDDKQKNNNNNNNICKLQPNAHIKNENIIINFDNFFEFWVRRFLNDTIDWKYDLNTCMNFTNTTKCNNNCNKNCKCFEQWVNIKKTEWKNVTEYFFKHDETSKKKYCEILKDIFENYYVEVIEKFYKGKHKWKERIEKLKNMDCSQVKIGTNASQDQIDIFLSNLKGDATQCTSKNPKSACNKPHAARIITRATTRNPC has kon of 2.8
